Target: T1, JCV VLP (consensus) (JC virus, UniProt P03089 1-354)
T1 construct: also called JCV VLPs; JC virus VLPs
Experiment: ELISA on coated JCV VLPs
endpoint-name: pIC50
Please keep in mind that pIC50 is minus log10 of the molar concentration; only the number is needed.

The following binders have reported results that may help.
[[record]]
binder = "2077-4-1 (antibody, V domains shown) VH: EVQLQQSGPELVKPGASMKISCKASGYSFTGYTMNWVKQSHGENLEWIGLFNPYNGGTRYNQKFKGKATLTVDKSSSTAYMELLSLTSEDSAVYYCARLRNYGIGDDFFDYWGQGTTLTVSS VL: DIVMTQSHKFMSTSVGDRVSITCKASQDVGTAVAWYQQKPGQSPKLLIYWASTRHTGVPDRFTGSGSGTDFTLTISNVQSEDLTDYFCQQYSNYPYTFGGGTKLEIK"
endpoint_result = 10.47

[[record]]
binder = "2077-26-1 (antibody, V domains shown) VH: EVQLQQSGPDLVKPGASMKLSCKASGYSFTGYTMNWVKQSHGKNLEWIGLFNPYNGGPSYNQKFKGKATLTVDKSSSTAYMELLSLTPEDSAVYYCARLRYYGIGDDFFDYWGQGTTLTVSS VL: DIVMTQSHKFMSTSVGDRVSITCKASQDVGTAVAWYQEKPGQSPKLLIYWASTRHTGVPDRFTGSGSGTDFTLTISNVQSEDLAYYFCQQYSNYPYTFGGGTKLEIK"
endpoint_result = 10.17

[[record]]
binder = "2077-7-5 (antibody, V domains shown) VH: EVQLQQSGPELVKPGASMKISCKASGYSFTGYTMNWVKQSHGKNLEWIGLFNPYNGGINYNQKFKGKATLTVDKSSSTAYMELLSLTSEDSAVYYCARLRYYGIGDDFFDYWGQGTSLTVSS VL: DIVMTQSHKFMSTSVGDRVSITCKASRDVGTAVAWYQQKPGQSPKLLIYWASTRHTGVPDRFTGSGSGTDFTLTISNVQSEDLADYFCQQYSNYPYTFGGGTKLEMK"
endpoint_result = 9.19

[[record]]
binder = "2077-10-1 (antibody, V domains shown) VH: EVQLQQSGPELVKPGASMKISCKASGYSFTGYTMNWMKQGHGKNLEWIGLFNPYNGGPNYNQKFKGKATLTVDKSSSTAYMELLSLTSEDSAVYYCARLRYYGIGDDFFDYWGQGTTLTVSS VL: DIVMTQSHKFMSTSVGDRVSITCKASQDVGTAVAWYQQKPGQSPKLLIYWASTRHTGVPDRFTGSGSGTDFTLTITNVQSEDLTDYFCQQYSSYPYTFGGGTKLEIK"
endpoint_result = 10.00


Attention now shifts to the item below.
Input line: # get_value(readout='pIC50', item= 2077-28-2 (antibody, V domains shown) VH: EVQLQQSGPELVKPGASMKISCKASGYSFTGYTMNWVKQSHGKNLEWIGLFNPYNGGATYNQRFKGKATLTVDKSSSTAYMDLLSLTSEDSAVYYCTRLRKYGIGDDFFDYWGQGTTLTVSS VL: DIVMTQSHKFMSTSVGDRVSITCKASQDVGTAVAWYQQKPGQSPKLLIYWASTRHTGVPDRFTGSGSGTDFTLTISNVQSEDLADYFCQQYSTYTYTFGGGTKLEIK )
Output line: 10.06
